From: the supplement of paper PMC10065799

Test system: c-Abl (mouse);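 note: 11-residue human phosphosite peptides and single-mutation variants displayed on the E. coli surface, counted by deep sequencing, each peptide's frequency after selection divided by its frequency in the unselected input library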;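 note: frequency after pTyr selection over input frequency; kinase dosed for 20-30% of maximal phosphorylation in three min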
Test: phosphorylation enrichment, bacterial display (enrichment ratio); higher = better substrate or ligand; peptides without Tyr show the background
Could you label it MET if measured phosphorylation enrichment is 0.6 or higher, and NOT MET otherwise?

>>> assigned_category("EWKQNYEESQS [MYH7_Y1460_K1459N]")
"MET"
>>> assigned_category("NETNKYQISVN [FGB_Y368_A365T]")
"NOT MET"
>>> assigned_category("AGADGYGFLAP [FOXL2_Y186_YF]")
"MET"
>>> assigned_category("KRFRIYHLATS [BRCA2_Y3009_YF]")
"NOT MET"
>>> assigned_category("RPSELYFSKIS [SMG1_Y2253_G2258S_YF]")
"MET"
>>> assigned_category("VYLGAYDCFLP [SLC22A5_Y486_R488C]")
"MET"
>>> assigned_category("RIGRKYKRVRF [F8_Y442_K444R]")
"MET"
>>> assigned_category("LGSVVYAHSKE [KCNQ2_Y226]")
"NOT MET"
>>> assigned_category("AEFGLYAAMVR [VSX2_Y222_G223A_YF]")
"MET"
>>> assigned_category("LNPFIYSLRNC [OR1A2_Y288_W293C]")
"MET"
>>> assigned_category("KDDEKYLDVIR [MTM1_Y260]")
"MET"
>>> assigned_category("GGFSRYDEGSG [RECQL5_Y484_D480G]")
"MET"
